# Test system: FBXW7
# Protocol: 3' UTR reporter interaction score (median-centred robust z-score of log2 firefly/Renilla activity); higher = less repression of the 3' UTR reporter
# Applied conditions: HEK293T; 48 h
Use satisfied when the recorded 3' UTR reporter interaction score is no lower than 0.6; use not satisfied when it is lower.

Please review the entries below; each comes with its answer.
AAAGCGCUUCCCUUCAGAGUGU :: satisfied
UUGAGAAUGAUGAAUCAUUAGG :: not satisfied
UGAGGUAGUAGGUUGUAUAGUU :: not satisfied
UAAUACUGCCUGGUAAUGAUGAC :: not satisfied

input: State whether the measured 3' UTR reporter interaction score reaches 0.6, counting equality as reaching it, for "AAGCCUGCCCGGCUCCUCGGG"
output: not satisfied

---

# Test system: BRCA2
# Protocol: 3' UTR reporter interaction score (median-centred robust z-score of log2 firefly/Renilla activity); higher = less repression of the 3' UTR reporter
# Applied conditions: HEK293T; 48 h
Measurement label: 3' UTR reporter interaction score
// no unit, no text: just the number

Guide cases for 3' UTR reporter interaction score, answers given:
ACUUGGGCACUGAAACAAUGUCC :: -0.973
CAUUAUUACUUUUGGUACGCG :: -0.00235
UGGUGGGCCGCAGAACAUGUGC :: -0.495
AAUUGCACGGUAUCCAUCUGUA :: 0.52
UUCAAGUAAUCCAGGAUAGGC :: 1.36

Entry "ACUGGGGGCUUUCGGGCUCUGCGU" ; assay system BRCA2; 3' UTR reporter interaction score recorded at 0.135

# lookup: "UAACAGUCUACAGCCAUGGUCG" on BRCA2, 3' UTR reporter interaction score = -0.186

Assay BRCA2, sample "UCUGGCUCCGUGUCUUCACUCC" , 3' UTR reporter interaction score read: 0.156

Simply: "UGUCUUACUCCCUCAGGCACAU" , BRCA2, 3' UTR reporter interaction score = 0.202

BRCA2 data for "CUCUAGAGGGAAGCGCUUUCUGUU" ; its 3' UTR reporter interaction score: -0.378

Item: "UACGUCAUCGUUGUCAUCGUCA" | System: BRCA2 | 3' UTR reporter interaction score: 0.347

Value (3' UTR reporter interaction score, BRCA2) for record "CACCCGUAGAACCGACCUUGCG" = 0.615

Bench note, BRCA2: entry "UGUGUCACUCGAUGACCACUGU" , its 3' UTR reporter interaction score = 0.0202

Given the sequence "CAGUGCAAUGUUAAAAGGGCAU" and test system BRCA2, the measured 3' UTR reporter interaction score is -0.00105

BRCA2 assay, sequence "UAGCAGCACAUAAUGGUUUGUG" , recorded 3' UTR reporter interaction score = -0.161

---

# Test system: BRCA2
# Protocol: 3' UTR reporter interaction score (median-centred robust z-score of log2 firefly/Renilla activity); higher = less repression of the 3' UTR reporter
# Applied conditions: HEK293T; 48 h
Parameter: 3' UTR reporter interaction score. Scope: all listed entries.

Examples with answers:
AGUGUGGCUUUCUUAGAGC :: -3.13
UAAGUGCUUCCAUGUUUUGGUGA :: -0.208
AGAGGUAUAGGGCAUGGGAAAA :: 0.942
AUGACCUAUGAAUUGACAGAC :: -0.0675
AACAUUCAUUGCUGUCGGUGGG :: 0.08

Value sought: 3' UTR reporter interaction score, system BRCA2, item "ACUUCACCUGGUCCACUAGCCGU" . Result: -0.412

Noted 3' UTR reporter interaction score for "GUCCAGUUUUCCCAGGAAUCCCUU" , tested on BRCA2: 0.301

// assay BRCA2, entry "UUCACAGGGAGGUGUCAUUUAU" , 3' UTR reporter interaction score value = -0.226

Where do the numbers come from? From the supplement of paper PMC5844555.
